assay: reversal of MRP1-mediated doxorubicin resistance, pilot screen, H69AR cells, doxorubicin co-treatment (AID 601); details: H69AR cells + 2 uM doxorubicin, CellTiter-Glo, 72 h; at 10 µM; active compounds read high
measure: differential viability (reversal) (%)
The response must be a number in % with no trailing unit.

Query block: // Input: O=C(Cn1cnc2c(nnn2Cc2ccc(Cl)cc2)c1=O)NCC1CCCO1 (stereo unspecified) . Output its differential viability (reversal) only.
Result block: 10.8

Query block: // Input: CCn1c(Cc2ccc(OC)cc2)nnc1SCC(=O)Nc1cccc(C(=O)OC)c1 . Output its differential viability (reversal) only.
Result block: 7.12

Query block: // Input: COc1ccccc1NC(=O)NC1(C(=O)N2CCC(O)CC2)CCCCC1 . Output its differential viability (reversal) only.
Result block: 4.86

Query block: // Input: CC(=O)N1CCc2cc(S(=O)(=O)NCCC3=CCCCC3)ccc21 . Output its differential viability (reversal) only.
Result block: -7.85

Query block: // Input: COc1ccc(C(=O)OCC(=O)NCc2ccco2)cc1OC . Output its differential viability (reversal) only.
Result block: -3.74

Query block: // Input: CCN(CC)c1ccc(-c2nn3c(-c4cccnc4)nnc3s2)cc1 . Output its differential viability (reversal) only.
Result block: -4.5

---

Exercise: state measured inhibition for each of the molecules provided.
assay: 384-well plate pilot, post-Golgi transport modulator project, inhibition of yeast transport mutant growth (AID 636); details: absorbance 615 nm, about 18 h, active compounds read high
The response must be a number in % with no trailing unit.

Query block: // Input: CC(C)CC(=O)Nc1ccccc1-c1nnn(CC(=O)N2CCOCC2)n1 . Output its inhibition only.
Result block: -5.87

Query block: // Input: CCOc1ccc(NC(=O)C2CC(=O)N(C(C)C)C2)cc1 (centres undefined) . Output its inhibition only.
Result block: -2

Query block: // Input: COc1ccc(C2=NO[C@@H]3C(=O)N(c4ccc5c(c4)OCCO5)C(=O)[C@H]23)cc1OC . Output its inhibition only.
Result block: 2.34

Query block: // Input: Cc1cc(NC(=O)CCOc2ccccc2)no1 . Output its inhibition only.
Result block: -2.34

Query block: // Input: Cc1nc(SCC#N)c2c(C)c(C)sc2n1 . Output its inhibition only.
Result block: -5.33

Query block: // Input: CCn1nnc(NC(=O)c2ccc(-c3ccc(Cl)cc3)o2)n1 . Output its inhibition only.
Result block: -6.62

Query block: // Input: CC(C)c1ccc(S(=O)(=O)N2CCN(C(=O)c3cccc(F)c3)CC2)cc1 . Output its inhibition only.
Result block: -5.73

Query block: // Input: O=C(/C=N/O)NCc1ccncc1 . Output its inhibition only.
Result block: -1.43

Query block: // Input: CCCCOC(=O)CN1C(=O)c2ccc(C(=O)OCCCC)cc2C1=O . Output its inhibition only.
Result block: -2.97

Query block: // Input: COC(=O)C1=C(C)NC(C)=C(C(=O)OC)C1c1cc2cc(C)ccc2[nH]c1=O . Output its inhibition only.
Result block: -3.29

Query block: // Input: Clc1ccc(-n2ncc3c(NCCCn4ccnc4)ncnc32)cc1 . Output its inhibition only.
Result block: -5.6

Query block: // Input: O=C(Nc1ccc2c(c1)nc1n2CCSC1)c1ccccc1 . Output its inhibition only.
Result block: -0.26

Query block: // Input: c1ccn2c(SCc3cn4ccsc4n3)nnc2c1 . Output its inhibition only.
Result block: -8.49

Query block: // Input: Fc1ccccc1-c1nc(NCCCN2CCOCC2)c2ccccc2n1 . Output its inhibition only.
Result block: -0.68

Query block: // Input: FC(F)(F)c1nnc2ccc(NCn3nnc4ccccc43)nn12 . Output its inhibition only.
Result block: -4.61

Query block: // Input: CCSc1ncc(C#N)c(=O)[nH]1 . Output its inhibition only.
Result block: -7.76

Query block: // Input: CC1(C)Cc2noc(N)c2C(C)(C)N1OC(=O)c1ccco1 . Output its inhibition only.
Result block: -3.55

Query block: // Input: c1ccc(CC2CCN(c3nc4ccccc4n4nnnc34)CC2)cc1 . Output its inhibition only.
Result block: 0

Query block: // Input: O=C(OCCCN1CCCC1)C1(c2ccccc2)CCCC1 . Output its inhibition only.
Result block: -2.84

Query block: // Input: CCCCP(=O)(CCCC)c1ccccc1C(=O)O . Output its inhibition only.
Result block: 1.82

Query block: // Input: CC1(C)NC(=O)N(CNc2cc(Cl)ccc2Cl)C1=O . Output its inhibition only.
Result block: -3.55

Query block: // Input: COc1ccc(-c2nnc(SCC(=O)c3cc(C)n(Cc4cccs4)c3C)o2)cc1 . Output its inhibition only.
Result block: 2.6

Query block: // Input: CCOC(=O)Cn1c(=N)n(CCOc2cccc(C)c2)c2ccccc21 . Output its inhibition only.
Result block: -6.67

Query block: // Input: O=C(COC(=O)CCC(=O)c1cccs1)NCc1ccco1 . Output its inhibition only.
Result block: -3.59
